Data provenance: patent US12590072B2

TEST_SYSTEM: TRβ (TR-receptor hybrid with yeast Gal4 DBD) (Homo sapiens, UniProt P10828)
Construct: expressed in transfected cells; host or cells: HEK293
Sequence (P10828 217-461 limits assumed): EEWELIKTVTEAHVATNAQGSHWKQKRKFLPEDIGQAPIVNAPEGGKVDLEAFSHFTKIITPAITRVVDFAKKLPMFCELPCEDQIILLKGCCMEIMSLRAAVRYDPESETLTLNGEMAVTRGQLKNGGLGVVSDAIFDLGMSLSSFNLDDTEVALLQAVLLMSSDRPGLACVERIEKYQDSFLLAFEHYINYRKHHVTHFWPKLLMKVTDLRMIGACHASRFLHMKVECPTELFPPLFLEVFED
EXPERIMENT: Thyroid-hormone reporter-gene assay, TRβ
Format: cell-based
SETTINGS: calculated from the reporter-gene EC50 values
TEST_READOUT: T3-SI, selectivity index EC50 (TRα)/EC50 (TRβ)

# annotated cases, reported T3-SI, selectivity index EC50 (TRα)/EC50 (TRβ) shown
>>> value("CC(C)c1c(O)ccc(Cc2c(Cl)cc(-c3cc(F)c(O)c(F)c3)cc2Cl)c1F")
"++ (3×<T3-SI≤30×)"
>>> value("N#Cc1nn(-c2cc(Cl)c(Cc3ccc(O)c(Cc4ccc(F)cc4)c3)c(Cl)c2)c(=O)nc1O")
"++ (3×<T3-SI≤30×)"
>>> value("CC(C)c1cc(Cc2c(Cl)cc(-n3nc(C#N)c(O)nc3=O)cc2C(C)C)ccc1O")
"++ (3×<T3-SI≤30×)"
>>> value("N#Cc1nn(-c2cc(Cl)c(Cc3ccc(O)c(-c4cccc(OC(F)F)c4)c3)c(Cl)c2)c(=O)nc1O")
"+++ (T3-SI>30×)"
>>> value("CC(C)c1c(O)ccc(Cc2c(Cl)cc(-n3nc(C#N)c(O)nc3=O)cc2Cl)c1F")
"++ (3×<T3-SI≤30×)"
>>> value("CC(C)c1cc(Cc2c(Cl)cc(-n3nc(C#N)c(O)nc3=O)cc2Cl)ccc1O")
"+++ (T3-SI>30×)"

**Q:** Quick one: T3-SI, selectivity index EC50 (TRα)/EC50 (TRβ) for O=c1nc(O)cnn1-c1cc(Cl)c(Cc2ccc(O)c(-c3cccc(OC(F)F)c3)c2)c(Cl)c1 ?
**A:** ++ (3×<T3-SI≤30×)

**Q:** Quick one: T3-SI, selectivity index EC50 (TRα)/EC50 (TRβ) for CC(C)c1cc(Cc2c(Cl)cc(-n3nc(C#N)c(O)nc3=O)c(F)c2Cl)ccc1O ?
**A:** ++ (3×<T3-SI≤30×)

**Q:** Quick one: T3-SI, selectivity index EC50 (TRα)/EC50 (TRβ) for CC(C)c1cc(Cc2c(Cl)cc(-c3cc(O)no3)cc2Cl)ccc1O ?
**A:** ++ (3×<T3-SI≤30×)

###

Reported EC50 values are given for each entry in this list.
TEST_SYSTEM: TRα (TR-receptor hybrid with yeast Gal4 DBD) (Homo sapiens, UniProt P10827)
Sequence (P10827 1-410 isoform P10827-2): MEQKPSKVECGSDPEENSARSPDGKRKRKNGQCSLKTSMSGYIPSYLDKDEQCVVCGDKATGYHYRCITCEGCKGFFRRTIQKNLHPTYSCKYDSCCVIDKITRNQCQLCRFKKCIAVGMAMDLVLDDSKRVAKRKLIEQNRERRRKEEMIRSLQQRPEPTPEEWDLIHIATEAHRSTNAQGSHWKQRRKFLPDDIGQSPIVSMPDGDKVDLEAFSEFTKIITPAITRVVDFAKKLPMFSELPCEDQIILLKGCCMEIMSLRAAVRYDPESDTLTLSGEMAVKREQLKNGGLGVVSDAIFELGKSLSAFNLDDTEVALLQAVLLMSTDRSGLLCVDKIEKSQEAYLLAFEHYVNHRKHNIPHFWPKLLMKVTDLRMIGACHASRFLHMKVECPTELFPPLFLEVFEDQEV
EXPERIMENT: Thyroid-hormone reporter-gene assay, TRα
SETTINGS: HEK293-derived reporter cells, firefly luciferase, 24 hr incubation

# annotated cases, reported EC50 shown
>>> value("N#Cc1nn(-c2cc(Cl)c(Cc3ccc(O)c(-c4cccc(OC(F)F)c4)c3)c(Cl)c2)c(=O)nc1O")
"> 1000 nM"
>>> value("N#Cc1nn(-c2cc(Cl)c(Cc3ccc(O)c(Cc4ccc(F)cc4)c3)c(Cl)c2)c(=O)nc1O")
"> 1000 nM"
>>> value("CC(C)c1c(O)ccc(Cc2c(Cl)cc(-c3ccc(F)c(O)c3F)cc2Cl)c1F")
"> 1000 nM"
>>> value("CC(C)c1c(O)ccc(Cc2c(Cl)cc(-n3nc(C#N)c(O)nc3=O)cc2Cl)c1F")
"10 to 100 nM"
>>> value("CC(C)c1cc(Cc2c(Cl)cc(-n3nc(C#N)c(O)nc3=O)cc2C(C)C)ccc1O")
"10 to 100 nM"

**Q:** Quick one: EC50 for O=c1nc(O)cnn1-c1cc(Cl)c(Cc2ccc(O)c(-c3cccc(OC(F)F)c3)c2)c(Cl)c1 ?
**A:** < 10 nM

**Q:** Quick one: EC50 for CC(C)c1cc(Cc2c(Cl)cc(-n3nc(C#N)c(O)nc3=O)c(F)c2Cl)ccc1O ?
**A:** 100 to 1000 nM

**Q:** Quick one: EC50 for CC(C)c1cc(Cc2c(Cl)cc(-c3cc(O)no3)cc2Cl)ccc1O ?
**A:** 100 to 1000 nM

**Q:** Quick one: EC50 for CC(C)c1c(O)ccc(Cc2c(Cl)cc(-c3cc(F)c(O)c(F)c3)cc2Cl)c1F ?
**A:** > 1000 nM

**Q:** Quick one: EC50 for CC(C)c1cc(Cc2c(Cl)cc(-n3nc(C#N)c(O)nc3=O)cc2Cl)ccc1O ?
**A:** 100 to 1000 nM
